Every entry's value here was drawn from paper PMC6192195.

studySystem: T1, SinR (wild type), master repressor of biofilm-related genes (Bacillus subtilis, UniProt P06533 1-111)
T1 construct: SinR of Bacillus subtilis; Tetramer by analytical SEC; also called SinR^WT; wildtype SinR; source: E. coli BL21(DE3), purified (Ni-NTA, SEC)
T1 sequence: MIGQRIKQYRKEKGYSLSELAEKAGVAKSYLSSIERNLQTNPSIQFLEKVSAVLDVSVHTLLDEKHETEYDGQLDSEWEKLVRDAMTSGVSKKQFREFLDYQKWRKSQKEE
assay: ITC; 250 uM SinI 9-39 peptide titrated into 25 uM SinR or SinR-L99S in the cell, 25 °C, buffer C (20 mM HEPES/NaOH, 500 mM NaCl); apparent KD; one-site model for wild type, two-sites model for L99S
conditions: both partners purified
valueType: Kd

// query Requested field: Kd. Item: FELDQEWVELMVEAKEANISPEEIRKYLLLN (peptide, UniProt P23308 9-39, looked up, SinI, antagonist (anti-repressor) of SinR, Bacillus subtilis, amino acids 9-39; Synthesized with a free amine at the N-terminus and a free acid group at the C-terminus; also called SinI peptide; truncated version of SinI; source: synthetic peptide (peptides&elephants GmbH)) [SinI^9-39 peptide (SinI protein from amino acid 9 to 39)]
// result ~7 nM
